Biological target: T1, recombinant human IL-23 (hrIL-23), produced at Centocor (human, UniProt P29460 23-328)
T1 construct: p19-p40 heterodimer; also called rhIL-23; huIL-23
T1 sequence 1: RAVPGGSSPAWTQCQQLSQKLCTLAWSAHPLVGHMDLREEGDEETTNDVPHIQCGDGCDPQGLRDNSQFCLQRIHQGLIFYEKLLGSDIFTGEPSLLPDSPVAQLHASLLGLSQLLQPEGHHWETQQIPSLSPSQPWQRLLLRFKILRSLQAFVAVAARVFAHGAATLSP
T1 sequence 2: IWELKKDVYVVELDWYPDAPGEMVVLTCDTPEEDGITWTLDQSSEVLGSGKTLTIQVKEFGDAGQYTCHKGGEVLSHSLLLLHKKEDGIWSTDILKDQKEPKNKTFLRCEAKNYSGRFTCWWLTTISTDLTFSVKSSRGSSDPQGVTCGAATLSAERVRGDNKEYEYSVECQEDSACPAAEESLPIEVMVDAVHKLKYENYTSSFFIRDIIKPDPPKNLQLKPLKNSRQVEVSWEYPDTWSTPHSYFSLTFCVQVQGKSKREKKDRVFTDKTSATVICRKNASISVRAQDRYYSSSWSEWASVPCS
Experiment: SET
Note to self: use label 1 only for Kd readings below 0.03 nM; a reading exactly at 0.03 nM still gets label 0.

{"binder": "MOR05055 Fab (Fab, V domains shown, Fab) VH: QVQLVESGGGLVQPGGSLRLSCAASGFTFSSFGMSWVRQAPGKGLEWVSNIEHKYLGYATVYAASVKGRFTISRDNSKNTLYLQMNSLRAEDTAVYYCARYWGTPYLMQFDNWGQGTLVTVSS VL: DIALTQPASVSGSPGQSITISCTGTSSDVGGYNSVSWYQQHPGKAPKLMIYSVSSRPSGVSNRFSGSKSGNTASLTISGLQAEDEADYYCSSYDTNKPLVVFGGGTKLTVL", "label_value": "label 1"}
{"binder": "MOR05062 Fab (Fab, V domains shown, Fab) VH: QVQLVESGGGLVQPGGSLRLSCAASGFTFSSFGMSWVRQAPGKGLEWVSNISSSGSSTYYADSVKGRFTISRDNSKNTLYLQMNSLRAEDTAVYYCARYWGTPYLMQFDNWGQGTLVTVSS VL: DIALTQPASVSGSPGQSITISCTGTSSDVGGYNSVSWYQQHPGKAPKLMIYSVSSRPSGVSNRFSGSKSGNTASLTISGLQAEDEADYYCQTYYFSYSGPVFGGGTKLTVL", "label_value": "label 0"}
{"binder": "MOR05048 Fab (Fab, V domains shown, Fab) VH: QVQLVESGGGLVQPGGSLRLSCAASGFTFSSFGMSWVRQAPGKGLEWVSNIEHKFMGYTTYYAAGVKGRFTISRDNSKNTLYLQMNSLRAEDTAVYYCARYWGTPYLMQFDNWGQGTLVTVSS VL: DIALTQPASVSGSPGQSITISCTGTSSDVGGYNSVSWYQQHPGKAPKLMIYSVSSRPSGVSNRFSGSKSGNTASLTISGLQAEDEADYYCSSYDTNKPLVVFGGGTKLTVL", "label_value": "label 1"}
{"binder": "MOR05063 Fab (Fab, V domains shown, Fab) VH: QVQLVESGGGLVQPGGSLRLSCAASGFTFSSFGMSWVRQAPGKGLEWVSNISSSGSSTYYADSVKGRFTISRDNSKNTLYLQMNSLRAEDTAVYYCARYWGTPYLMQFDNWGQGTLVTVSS VL: DIALTQPASVSGSPGQSITISCTGTSSDVGGYNSVSWYQQHPGKAPKLMIYSVSSRPSGVSNRFSGSKSGNTASLTISGLQAEDEADYYCGSWDPIFSYEVFGGGTKLTVL", "label_value": "label 0"}

Consider the record given below.
## Input Does the reported Kd of MOR05052 Fab (Fab, V domains shown, Fab) VH: QVQLVESGGGLVQPGGSLRLSCAASGFTFSSFGMSWVRQAPGKGLEWVSSIEHKYLSYTTFYAASVKGRFTISRDNSKNTLYLQMNSLRAEDTAVYYCARYWGTPYLMQFDNWGQGTLVTVSS VL: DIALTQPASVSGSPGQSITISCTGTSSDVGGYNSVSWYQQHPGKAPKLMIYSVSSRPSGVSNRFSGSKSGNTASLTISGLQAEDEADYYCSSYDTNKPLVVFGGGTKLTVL stay below 0.03 nM?
## Output label 1
